Values compiled from ChEMBL document CHEMBL3425423.

Collected pIC50 values appear next to each entry.
# tested_target: Voltage-gated inwardly rectifying potassium channel KCNH2 (Homo sapiens, UniProt Q12809)
# Sequence (Q12809 whole entry): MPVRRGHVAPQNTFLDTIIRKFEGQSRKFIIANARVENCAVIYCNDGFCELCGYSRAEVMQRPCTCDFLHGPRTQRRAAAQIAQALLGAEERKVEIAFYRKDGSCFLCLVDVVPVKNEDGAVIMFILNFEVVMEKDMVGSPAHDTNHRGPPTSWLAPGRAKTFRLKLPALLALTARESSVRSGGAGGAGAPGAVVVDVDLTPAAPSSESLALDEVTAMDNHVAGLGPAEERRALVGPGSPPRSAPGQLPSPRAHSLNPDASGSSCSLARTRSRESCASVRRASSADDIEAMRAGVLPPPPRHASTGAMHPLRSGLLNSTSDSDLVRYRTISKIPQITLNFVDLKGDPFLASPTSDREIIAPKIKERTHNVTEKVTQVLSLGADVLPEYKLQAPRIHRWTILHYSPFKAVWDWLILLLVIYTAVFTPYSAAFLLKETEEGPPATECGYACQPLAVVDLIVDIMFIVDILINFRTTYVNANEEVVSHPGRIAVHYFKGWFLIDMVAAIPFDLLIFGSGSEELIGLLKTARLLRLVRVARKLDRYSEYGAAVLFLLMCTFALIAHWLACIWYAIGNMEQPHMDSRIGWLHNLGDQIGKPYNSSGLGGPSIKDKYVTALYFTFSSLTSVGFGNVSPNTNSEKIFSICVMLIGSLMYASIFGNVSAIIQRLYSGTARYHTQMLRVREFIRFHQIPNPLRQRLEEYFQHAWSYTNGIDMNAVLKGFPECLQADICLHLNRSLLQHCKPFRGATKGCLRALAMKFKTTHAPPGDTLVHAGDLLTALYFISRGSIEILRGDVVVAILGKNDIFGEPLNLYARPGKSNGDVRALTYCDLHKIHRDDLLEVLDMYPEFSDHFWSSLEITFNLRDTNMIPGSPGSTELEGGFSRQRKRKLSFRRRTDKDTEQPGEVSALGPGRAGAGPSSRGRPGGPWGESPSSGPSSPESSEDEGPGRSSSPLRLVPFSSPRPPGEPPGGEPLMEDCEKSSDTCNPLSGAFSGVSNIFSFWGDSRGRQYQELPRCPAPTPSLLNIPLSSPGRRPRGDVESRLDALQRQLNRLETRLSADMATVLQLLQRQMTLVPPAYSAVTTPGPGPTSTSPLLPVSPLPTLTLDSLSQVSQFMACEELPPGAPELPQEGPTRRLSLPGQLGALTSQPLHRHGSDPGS
# experiment: Inhibition of human ERG expressed in CHO cells measured over 5 mins by patch clamp assay
pIC50: −log10 of the molar value.

Examples with answers:
> print(dat)
                                   compound     val
1  O=C1COc2cc(OC(=O)c3ccccc3)c(CNC34CCC(C[C@]5(O)Cn6c(=O)ccc7ncc(F)c5c76)(CC3)OC4)nc2N1    4.52
2  O=c1ccc2ncc(F)c3c2n1C[C@@]3(O)CC12CCC(NCc3cc4c(cn3)OCCS4(=O)=O)(CC1)CO2  < 4.22
3  O=c1ccc2ncc(F)c3c2n1C[C@@]3(O)CC12CCC(NCc3ccc4c(n3)NCCN4)(CC1)CO2  < 4.22
4  CC1COc2cc(CNC34CCC(C[C@]5(O)Cn6c(=O)ccc7ncc(F)c5c76)(CC3)OC4)ncc2O1 (stereo in doubt; 20)  < 4.22
5  O=c1ccc2ncc(F)c3c2n1C[C@@]3(O)CC12CCC(NCc3cc4c(cn3)S(=O)(=O)CCO4)(CC1)CO2  < 4.22

# evaluate next
For the compound CCc1cc2c(nc1CNC13CCC(C[C@]4(O)Cn5c(=O)ccc6ncc(F)c4c65)(CC1)OC3)NC(=O)CO2 , report pIC50.
< 4.22

====

Quick reference: MIC of the listed items.
# Test system: Staphylococcus aureus
# experiment: Antibacterial activity against Staphylococcus aureus Smith
# Type: functional
# assay_conditions: Staphylococcus aureus, Smith; read-out: MIC
# value in µg/mL; strip the unit string

Known MIC results, listed for orientation:
> print(dat)
                           structure.string          tested.target  measure.name  units.symbol    val
1  O=C1COc2cc(O)c(CNC34CCC(C[C@]5(O)Cn6c(=O)ccc7ncc(F)c5c76)(CC3)OC4)nc2N1  Staphylococcus aureus           MIC         µg/mL      2
2  O=c1ccc2ncc(F)c3c2n1C[C@@]3(O)CC12CCC(NCc3ccc4c(c3)OC(F)(F)O4)(CC1)CO2  Staphylococcus aureus           MIC         µg/mL   0.25
3  O=c1ccc2ncc(F)c3c2n1C[C@@]3(O)CC12CCC(NC/C=C/c3c(F)cccc3F)(CC1)CO2  Staphylococcus aureus           MIC         µg/mL  0.063

Continue with the next compound.
Provide only the value of recorded MIC for O=c1ccc2ncc(F)c3c2n1C[C@@]3(O)CC12CCC(NCc3ccc4c(c3Cl)OCCO4)(CC1)CO2
1

====

# Tested on: Haemophilus influenzae
# experiment: Antibacterial activity against Haemophilus influenzae ATCC 49247
# Type: functional
# assay_conditions: Haemophilus influenzae, ATCC 49247; read-out: MIC
measure_name: MIC (µg/mL)
All answers are understood in µg/mL, so give the number only.

In the examples that follow, each entry is paired with its recorded MIC.
> print(dat)
                           structure.string  val
1  N#Cc1c(CNC23CCC(C[C@]4(O)Cn5c(=O)ccc6ncc(F)c4c65)(CC2)OC3)ncc2c1OCCO2   32
2  Cc1cc2c(nc1CNC13CCC(C[C@]4(O)Cn5c(=O)ccc6ncc(F)c4c65)(CC1)OC3)NC(=O)CO2    4
3  CN1CCN(C)c2nc(CNC34CCC(C[C@]5(O)Cn6c(=O)ccc7ncc(F)c5c76)(CC3)OC4)ccc21   32
4  O=c1ccc2ncc(F)c3c2n1C[C@@]3(O)CC12CCC(NCc3cc4c(cn3)OCS4)(CC1)CO2    4
5  O=c1ccc2ncc(F)c3c2n1C[C@@]3(O)CC12CCC(NCc3c(Cl)cc4c(c3Cl)OCCO4)(CC1)CO2   32
6  O=C1COc2cc(O)c(CNC34CCC(C[C@]5(O)Cn6c(=O)ccc7ncc(F)c5c76)(CC3)OC4)nc2N1    4

Shift focus to the following entry.
Give the value of MIC reported for the following: O=c1ccc2ncc(F)c3c2n1C[C@@]3(O)CC12CCC(NCc3cc4c(nn3)OCCO4)(CC1)CO2
32

====

# System: Haemophilus influenzae
# experiment: Antibacterial activity against Haemophilus influenzae ATCC 49247
# Format: functional
# assay_conditions: Haemophilus influenzae, ATCC 49247; read-out: MIC
# MIC per entry
Returns: string containing the numeric result and its unit.

// known answers, use as guide
> print(dat)
                                   compound       val
1  O=c1ccc2ncc(F)c3c2n1C[C@@]3(O)CC12CCC(NCc3cc4c(cn3)OCCC4)(CC1)CO2   4 µg/mL
2  O=c1ccc2ncc(F)c3c2n1C[C@@]3(O)CC12CCC(NCc3cc4c(cn3)OCCS4(=O)=O)(CC1)CO2  32 µg/mL
3  CCc1cc2c(nc1CNC13CCC(C[C@]4(O)Cn5c(=O)ccc6ncc(F)c4c65)(CC1)OC3)NC(=O)CO2  16 µg/mL
4  CC1COc2cnc(CNC34CCC(C[C@]5(O)Cn6c(=O)ccc7ncc(F)c5c76)(CC3)OC4)cc2O1 (stereo in doubt; 21)  32 µg/mL
5  O=c1ccc2ncc(F)c3c2n1C[C@@]3(O)CC12CCC(NCc3cc4c(cn3)SCCO4)(CC1)CO2   8 µg/mL

Fill in reported MIC for this entry: O=C1COc2ccc(CNC34CCC(C[C@]5(O)Cn6c(=O)ccc7ncc(F)c5c76)(CC3)OC4)nc2N1
1 µg/mL

Find the measured MIC of O=c1ccc2ncc(F)c3c2n1C[C@@]3(O)CC12CCC(NCc3ccc4c(n3)OCCN4)(CC1)CO2 and report it.
32 µg/mL

Provide MIC value for the following compound: O=c1ccc2ncc(F)c3c2n1C[C@@]3(O)CC12CCC(NCc3cc4c(c(Cl)c3Cl)OCCO4)(CC1)CO2
32 µg/mL

====

# Tested on: Staphylococcus aureus
# experiment: Antibacterial activity against Staphylococcus aureus Smith
# Format: functional
# assay_conditions: Staphylococcus aureus, Smith; read-out: MIC
Threshold check on MIC: strictly below 0.5 µg/mL is y; on or above 0.5 µg/mL is n.

// known answers, use as guide
> print(dat)
                                   compound  group
1  O=C1COc2ccc(CNC34CCC(C[C@]5(O)Cn6c(=O)ccc7ncc(F)c5c76)(CC3)OC4)nc2N1      y
2  CN1CCOc2ccc(CNC34CCC(C[C@]5(O)Cn6c(=O)ccc7ncc(F)c5c76)(CC3)OC4)nc21      n
3  O=C1COc2cc(OC(=O)c3ccccc3)c(CNC34CCC(C[C@]5(O)Cn6c(=O)ccc7ncc(F)c5c76)(CC3)OC4)nc2N1      n

Decide: MIC of O=C1COc2ccc(C(=O)NC34CCC(C[C@]5(O)Cn6c(=O)ccc7ncc(F)c5c76)(CC3)OC4)nc2N1 strictly below 0.5 µg/mL?
n

Dear colleague, could you confirm whether MIC of O=c1ccc2ncc(F)c3c2n1C[C@@]3(O)CC12CCC(NCc3ccc4c(n3)NCCN4)(CC1)CO2 falls below 0.5 µg/mL? Thanks.
n

State whether 0.5 µg/mL exceeds MIC recorded for O=C1COc2ccc(CNC34CCC(C[C@]5(O)Cn6c(=O)ccc7ncc(F)c5c76)(CC3)OC4)cc2N1 .
n

Determine if CN1CCN(C)c2nc(CNC34CCC(C[C@]5(O)Cn6c(=O)ccc7ncc(F)c5c76)(CC3)OC4)ccc21 shows MIC strictly lower than 0.5 µg/mL.
n

# TODO verify MIC < 0.5 µg/mL strictly for this compound: O=C1CSc2ccc(CNC34CCC(C[C@]5(O)Cn6c(=O)ccc7ncc(F)c5c76)(CC3)OC4)nc2N1
y

For CC1COc2cc(CNC34CCC(C[C@]5(O)Cn6c(=O)ccc7ncc(F)c5c76)(CC3)OC4)ncc2O1 (stereo in doubt; 20) , is the recorded MIC below the cut-off of 0.5 µg/mL?
n

Strictly below 0.5 µg/mL: is that where MIC of O=c1ccc2ncc(F)c3c2n1C[C@@]3(O)CC12CCC(NC/C=C/c3cc(F)ccc3F)(CC1)CO2 sits?
y

For this compound, is MIC lower than 0.5 µg/mL? O=c1[nH]c2c(F)ccc(F)c2cc1CNC12CCC(C[C@]3(O)Cn4c(=O)ccc5ncc(F)c3c54)(CC1)OC2
n

Is the reported MIC for O=c1ccc2ncc(F)c3c2n1C[C@@]3(O)CC12CCC(NCc3cc4c(cn3)OCCC4)(CC1)CO2 strictly below 0.5 µg/mL?
y

Lab log: compare recorded MIC with 0.5 µg/mL; is it strictly lower for O=c1ccc2ncc(F)c3c2n1C[C@@]3(O)CC12CCC(NC/C(F)=C\c3cc(F)ccc3F)(CC1)CO2 ?
y

====

# Tested on: Staphylococcus aureus
# experiment: Antibacterial activity against Staphylococcus aureus Smith
# Assay type: functional
# assay_conditions: Staphylococcus aureus, Smith; read-out: MIC
Threshold check on MIC: strictly below 0.5 µg/mL is 1; on or above 0.5 µg/mL is 0.

> print(dat)
                            structure.string  group
 1  O=c1ccc2ncc(F)c3c2n1C[C@@]3(O)CC12CCC(NCc3cc4c(nn3)OCCO4)(CC1)CO2      0
 2  O=c1ccc2ncc(F)c3c2n1C[C@@]3(O)CC12CCC(NC/C(F)=C/c3cc(F)ccc3F)(CC1)CO2      0
 3  O=c1ccc2ncc(F)c3c2n1C[C@@]3(O)CC12CCC(NCc3cc4c(cn3)SCCO4)(CC1)CO2      1
 4  O=c1ccc2ncc(F)c3c2n1C[C@@]3(O)CC12CCC(NC/C=C/c3ccccc3)(CC1)CO2      1
 5  CCc1cc2c(nc1CNC13CCC(C[C@]4(O)Cn5c(=O)ccc6ncc(F)c4c65)(CC1)OC3)NC(=O)CO2      0
 6  O=c1ccc2ncc(F)c3c2n1C[C@@]3(O)CC12CCC(NCc3ccc4c(c3)OCCO4)(CC1)CO2      1
 7  O=c1ccc2ncc(F)c3c2n1C[C@@]3(O)CC12CCC(NCc3ncc4c(n3)OCCO4)(CC1)CO2      0
 8  O=c1ccc2ncc(F)c3c2n1C[C@@]3(O)CC12CCC(NCc3cc4c(cc3F)OCCO4)(CC1)CO2      1
 9  O=c1ccc2ncc(F)c3c2n1C[C@@]3(O)CC12CCC(NCc3c(Cl)cc4c(c3Cl)OCCO4)(CC1)CO2      0
10  O=c1cnc2ccc(CNC34CCC(C[C@]5(O)Cn6c(=O)ccc7ncc(F)c5c76)(CC3)OC4)nc2[nH]1      0

Decide: MIC of O=c1ccc2ncc(F)c3c2n1C[C@@]3(O)CC12CCC(NCc3cc4c(cn3)OCS4)(CC1)CO2 strictly below 0.5 µg/mL?
1

Is MIC strictly under 0.5 µg/mL for the entry Cn1c(=O)c(CNC23CCC(C[C@]4(O)Cn5c(=O)ccc6ncc(F)c4c65)(CC2)OC3)cc2ccccc21 ?
0

Please check: MIC for O=c1ccc2ncc(F)c3c2n1C[C@@]3(O)CC12CCC(NCc3ccc4c(n3)OCCO4)(CC1)CO2 , strictly under 0.5 µg/mL or not?
0

Answer whether the compound O=c1ccc2ncc(F)c3c2n1C[C@@]3(O)CC12CCC(NCc3cc4c(cn3)OCCS4(=O)=O)(CC1)CO2 has MIC strictly less than 0.5 µg/mL
0

Given CN1CCOc2nc(CNC34CCC(C[C@]5(O)Cn6c(=O)ccc7ncc(F)c5c76)(CC3)OC4)ccc21 , is recorded MIC strictly lower than 0.5 µg/mL?
0

Strictly below 0.5 µg/mL: is that where MIC of O=C1COc2cc(Cl)c(CNC34CCC(C[C@]5(O)Cn6c(=O)ccc7ncc(F)c5c76)(CC3)OC4)nc2N1 sits?
1

Say whether its MIC is strictly beneath 0.5 µg/mL. Entry: O=c1ccc2ncc(F)c3c2n1C[C@@]3(O)CC12CCC(NC/C=C/c3ccccn3)(CC1)CO2
0
